For each of the compounds below, state its Ki.
target.desc: human GnRH receptors (Homo sapiens, UniProt P30968)
Construct: expressed in transfected cells; host or cells: HEK 293 cells, stably transfected; membranes
Sequence (P30968 1-328): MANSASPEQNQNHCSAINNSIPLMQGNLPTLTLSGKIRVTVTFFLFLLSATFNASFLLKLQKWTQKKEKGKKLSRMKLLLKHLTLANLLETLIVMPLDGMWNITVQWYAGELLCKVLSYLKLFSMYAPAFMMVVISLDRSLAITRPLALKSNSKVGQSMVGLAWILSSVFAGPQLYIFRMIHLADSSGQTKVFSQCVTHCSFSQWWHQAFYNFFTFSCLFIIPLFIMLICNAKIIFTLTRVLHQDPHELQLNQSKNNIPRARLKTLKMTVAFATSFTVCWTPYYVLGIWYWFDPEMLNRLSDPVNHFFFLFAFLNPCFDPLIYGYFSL
test.description: Radioligand binding: inhibition of 125I-GnRH-A binding to human GnRH receptor membranes
reported.conditions: HEK 293 cell membranes
Quick note: give the figure in nM, leave out the unit.

Field Ki (entry COc1nc(NCCCN2CCOCC2)nc(OC)c1NC(=O)c1ccc(Cc2c(C)cc3c(c2C)C(C)(C)CCO3)o1 [Example I1] ) reads 27

Field Ki (entry COc1nc(N(C)C)nc(OC)c1NC(=O)c1ccc(Cc2cc3c(cc2C)C(C)(C)CCC3(C)C)o1 [Example B2] ) reads 1.8

Field Ki (entry COc1nc(N2CCN(c3ccccc3F)CC2)nc(OC)c1NC(=O)c1ccc(Cc2cc3c(cc2C)C(C)(C)OC3(C)C)o1 [Example D43] ) reads 160

Field Ki (entry COc1nc(NCCCN(C)C)nc(OC)c1NC(=O)c1ccc(Cc2c(C)cc3c(c2C)C(C)(C)CO3)o1 [Example H3] ) reads 46

Field Ki (entry CNc1nc(OC)c(NC(=O)c2ccc(Cc3cc4c(cc3C)C(C)(C)CCC4(C)C)o2)c(OC)n1 [Example B1] ) reads 1

Field Ki (entry COc1nc(N[C@@H]2CCC[C@H]2OCc2ccccc2)nc(OC)c1NC(=O)c1ccc(Cc2cc3c(cc2C)C(C)(C)OC3(C)C)o1 [Example D32] ) reads 22

Field Ki (entry COc1nc(NCCN2CCCC2)nc(OC)c1NC(=O)c1ccc(Cc2cc3c(cc2C)C(C)(C)OC3(C)C)o1 [Example D5] ) reads 1.5

Field Ki (entry COc1nc(NCCN2CCCC2)nc(OC)c1NC(=O)c1ccc(Cc2cc3c(cc2C)C(C)(C)OC3(C)C)o1 [Example D23, Acetate] ) reads 1.6

Field Ki (entry COc1nc(N(CCCN)CCCN)nc(OC)c1NC(=O)c1ccc(Cc2cc3c(cc2C)C(C)(C)OC3(C)C)o1 [Example D16] ) reads 6.5

Field Ki (entry CCCCN(CCC#N)c1nc(OC)c(NC(=O)c2ccc(Cc3cc4c(cc3C)C(C)(C)OC4(C)C)o2)c(OC)n1 [Example D37] ) reads 41

Field Ki (entry COc1nc(NCCCNCCCN)nc(OC)c1NC(=O)c1ccc(Cc2cc3c(cc2C)C(C)(C)OC3(C)C)o1 [Example D17] ) reads 0.65

Field Ki (entry CNCCNc1nc(OC)c(NC(=O)c2ccc(Cc3cc4c(cc3C)C(C)(C)OC4(C)C)o2)c(OC)n1 [Example D20] ) reads 1

Field Ki (entry COc1nc(N2CCN(CCN3CCOCC3)CC2)nc(OC)c1NC(=O)c1ccc(Cc2cc3c(cc2C)C(C)(C)OC3(C)C)o1 [Example D46] ) reads 19

Field Ki (entry CCN(CC)CCNc1nc(OC)c(NC(=O)c2ccc(Cc3cc4c(cc3C)C(C)(C)OC4(C)C)o2)c(OC)n1 [Example D7] ) reads 6
